- test_system: Bromodomain-containing protein 4 (Homo sapiens)
- experiment_description: A mixture comprising 100 nM GST-BRD4 (BD1+BD2) and 100 nM biotinylated acetyl-histone H4 (Lys5,8,12,16) peptide was prepared in assay buffer (50 mM HEPES pH 7.4; 25 mM NaCl; 0.05% Tween 20; 0.1% bovine serum albumin (BSA); 10 mM dithiothreitol (DTT)). After adding 6 μl of the mixture to the diluent, 6 μl of the pre-mixed AlphaLISA Glutathione Acceptor Beads and AlphaScreen Streptavidin Donor Beads (PerkinElmer, 10 μg/ml in assay buffer, respectively) was added thereto. The samples were incubated in the dark at room temperature for 30 minutes (shaking at 300 rpm). Then, the signals were measured with PerkinElmer Envision HTS Multilabel Reader using an alpha screen protocol of PerkinElmer. Each plate contained the negative control in which biotinylated acetyl-histone H4 peptide and GST-BRD4 (BD1+BD2) were replaced by assay buffer. In the case of using the software GraphPad Prism for calculation, the negative control point was input as a low standard value. The positive control (probe molecule l-BET762 containing protein/peptide mixture) proceeded to pipetting.
quantity_kind: IC50 (nM)

Reference set (3 entries):
>>> print(df.to_string())
                                chem_smiles                               test_system  units_symbol  readout_number
0  COCCOc1ccc2c(c1)nc(NCCCCNC(C)=O)c1nnc(C)n12  Bromodomain-containing protein 4 (Homo sapiens)            nM              91
1  Cc1nnc2c(NCCCCNC(=O)C(C)(C)C)nc3ccc(F)cc3n12  Bromodomain-containing protein 4 (Homo sapiens)            nM              61
2  Cc1ccc2nc(NCCCCNC(=O)C(C)(C)C)c3nnc(C)n3c2c1  Bromodomain-containing protein 4 (Homo sapiens)            nM              56

[P] Cc1nnc2c(NCCCCNC(=O)c3ccccc3)nc3ccccc3n12
[Q] Cc1nnc2c(NCCCCNC(=O)OC(C)C)nc3c(C(F)(F)F)cc(F)cc3n12
Response body: label of entry with the larger IC50; valid values P , Q . # reply format: chosen label
Q
(Q: 91 nM, P: 58 nM)

Values from ChEMBL document CHEMBL5728514
